Reported Ki values for a set of compounds
target: D(2) dopamine receptor (Homo sapiens); experiment: Inhibition of dopamine D2 receptor
Sequence (P14416 whole entry): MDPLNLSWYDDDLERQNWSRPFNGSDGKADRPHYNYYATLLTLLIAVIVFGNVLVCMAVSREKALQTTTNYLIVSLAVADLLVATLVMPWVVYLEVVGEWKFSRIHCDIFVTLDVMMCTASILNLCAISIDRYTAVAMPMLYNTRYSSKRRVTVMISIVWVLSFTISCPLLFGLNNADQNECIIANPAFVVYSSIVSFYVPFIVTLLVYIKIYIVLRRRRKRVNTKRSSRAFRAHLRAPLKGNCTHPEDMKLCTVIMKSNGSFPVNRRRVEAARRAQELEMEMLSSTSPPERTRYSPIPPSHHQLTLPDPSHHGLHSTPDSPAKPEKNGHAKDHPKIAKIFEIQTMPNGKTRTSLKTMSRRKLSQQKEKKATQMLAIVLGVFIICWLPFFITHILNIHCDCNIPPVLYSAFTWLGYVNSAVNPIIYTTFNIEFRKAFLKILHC
outcome_measure: Ki (µM)

# compound, assay_target, outcome_measure, recorded_measurement
records = [
    ("O=C1Nc2ccccc2C1CCCCN1CCN(c2ccc(Cl)cc2)CC1 (stereo not drawn)", "D(2) dopamine receptor (Homo sapiens)", "Ki", 0.96),
    ("O=C1Nc2ccc(F)cc2C1CCCCN1CCN(c2ccccc2)CC1 (stereo not drawn)", "D(2) dopamine receptor (Homo sapiens)", "Ki", 0.33),
    ("CCC1(CCCCN2CCN(c3ccc(Cl)cc3)CC2)C(=O)Nc2cc(F)ccc21 (stereo not drawn)", "D(2) dopamine receptor (Homo sapiens)", "Ki", 0.95),
]

---

molecular target: 5-hydroxytryptamine receptor 1A (Rattus norvegicus) (UniProt P19327); experiment: Displacement of [3H]8-OH-DPAT from 5HT1A receptor in rat frontal cortex membrane at 10 nM; type: cell membranes
Sequence (P19327 whole entry): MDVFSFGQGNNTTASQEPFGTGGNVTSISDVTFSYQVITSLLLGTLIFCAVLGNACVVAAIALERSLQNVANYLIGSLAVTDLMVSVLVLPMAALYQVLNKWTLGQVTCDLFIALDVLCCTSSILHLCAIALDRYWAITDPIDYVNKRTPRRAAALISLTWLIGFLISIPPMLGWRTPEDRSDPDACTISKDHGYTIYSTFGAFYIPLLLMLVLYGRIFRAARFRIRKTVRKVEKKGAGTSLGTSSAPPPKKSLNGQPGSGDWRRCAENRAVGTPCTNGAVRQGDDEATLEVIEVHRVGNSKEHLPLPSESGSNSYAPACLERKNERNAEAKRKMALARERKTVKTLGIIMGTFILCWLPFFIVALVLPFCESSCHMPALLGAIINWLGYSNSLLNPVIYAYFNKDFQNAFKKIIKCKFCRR
Doc: threshold 6% (exclusive). Items with Activity beneath it return true; others return false.

# compound, class_name
data = [
    ("O=C1Nc2ccc(F)cc2C1CCCCN1CCN(c2ccccc2)CC1 (stereo not given)", "true"),
    ("CCC1(CCCCN2CCN(c3ccccc3OC)CC2)C(=O)N(Cc2ccccc2)c2ccccc21 (stereo not given)", "false"),
    ("CCC1(CCCCN2CCN(c3ccc(OC)cc3)CC2)C(=O)Nc2ccccc21 (stereo not given)", "true"),
    ("CCC1(CCCCN2CCN(c3ccc(F)c(Cl)c3)CC2)C(=O)Nc2ccccc21 (stereo not given)", "true"),
    ("CCC1(CCCCN2CCN(c3ccccc3)CC2)C(=O)N(C)c2ccccc21 (stereo not given)", "false"),
    ("CCC1(CCCCN2CCN(c3cccc(Cl)c3)CC2)C(=O)Nc2ccccc21 (stereo not given)", "false"),
    ("CCC1(CCCCN2CCN(c3ccc(Cl)cc3)CC2)C(=O)Nc2cc(F)ccc21 (stereo not given)", "true"),
    ("CCC1(CCCCCN2CCN(c3ccc(Cl)cc3)CC2)C(=O)Nc2ccccc21 (stereo not given)", "true"),
]

---

Reported Activity values for a set of compounds
molecular target: 5-hydroxytryptamine receptor 1A (Rattus norvegicus) (UniProt P19327); assay: Displacement of [3H]8-OH-DPAT from 5HT1A receptor in rat frontal cortex membrane at 0.1 uM; type: cell membranes
outcome_measure: Activity (%)

# compound, recorded_measurement
measured = [
    ("O=C1Nc2ccccc2C1CCCCN1CCN(c2cccc(Cl)c2)CC1 (centres undefined)", 40),
    ("CCC1(CCCCN2CCN(c3ccc(Cl)cc3)CC2)C(=O)Nc2cc(F)c(Cl)cc21 (centres undefined)", 0),
    ("CCC1(CCCCN2CCN(c3ccc(C)c(Cl)c3)CC2)C(=O)Nc2ccccc21 (centres undefined)", 11),
    ("CCC1(CCCCN2CCN(c3ccccc3OC)CC2)C(=O)N(Cc2ccccc2)c2ccccc21 (centres undefined)", 86),
]

---

biological target: 5-hydroxytryptamine receptor 7 (Homo sapiens, UniProt P34969); test: Displacement of [3H]LSD from human recombinant 5HT7 receptor expressed in CHO cells; format: cell-based; details: read-out: Ki
Sequence (P34969 whole entry): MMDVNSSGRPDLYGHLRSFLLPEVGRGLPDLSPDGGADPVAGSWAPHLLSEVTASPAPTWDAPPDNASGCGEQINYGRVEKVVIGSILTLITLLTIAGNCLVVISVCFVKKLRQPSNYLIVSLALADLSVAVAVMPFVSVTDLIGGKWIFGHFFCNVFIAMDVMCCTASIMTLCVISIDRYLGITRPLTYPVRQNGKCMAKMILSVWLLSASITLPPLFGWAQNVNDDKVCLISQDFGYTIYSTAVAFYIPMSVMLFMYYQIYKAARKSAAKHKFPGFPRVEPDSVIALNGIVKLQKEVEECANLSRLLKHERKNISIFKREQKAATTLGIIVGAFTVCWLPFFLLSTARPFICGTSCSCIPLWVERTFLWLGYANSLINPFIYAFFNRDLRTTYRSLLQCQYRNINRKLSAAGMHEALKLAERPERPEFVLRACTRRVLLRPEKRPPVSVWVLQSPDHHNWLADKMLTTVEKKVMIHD
pKi: −log10 of the molar value.
Each record here notes measured pKi.
outcome_measure: pKi

# molecule, outcome_measure, recorded_measurement
rows = [
    ("O=C1Nc2ccccc2C1CCCCN1CCN(c2cccc(Cl)c2)CC1 (stereo not drawn)", "pKi", 9.31),
    ("CCC1(CCCCN2CCN(c3cccc(Cl)c3)CC2)C(=O)Nc2c(Cl)cc(Cl)cc21 (stereo not drawn)", "pKi", 8.02),
    ("CCC1(CCCCCN2CCN(c3cccc(Cl)c3)CC2)C(=O)Nc2ccccc21 (stereo not drawn)", "pKi", 8.84),
    ("CCC1(CCCCN2CCN(c3ccccc3OC)CC2)C(=O)Nc2ccccc21 (stereo not drawn)", "pKi", 8.27),
    ("CCC1(CCCCN2CCN(c3ccc(Cl)cc3)CC2)C(=O)Nc2cc(F)c(Cl)cc21 (stereo not drawn)", "pKi", 8.16),
    ("CCC1(CCCCN2CCN(c3ccc(Cl)cc3)CC2)C(=O)Nc2c(Cl)cc(F)cc21 (stereo not drawn)", "pKi", 8.22),
    ("CCC1(CCCCN2CCN(c3cccc(Cl)c3)CC2)C(=O)Nc2ccc(Cl)cc21 (stereo not drawn)", "pKi", 8.08),
    ("CCC1(CCCCN2CCN(c3cccc(Cl)c3)CC2)C(=O)Nc2c(Cl)cc(F)cc21 (stereo not drawn)", "pKi", 8.32),
    ("CCC1(CCCCN2CCC(c3ccc(F)cc3)CC2)C(=O)Nc2ccccc21 (stereo not drawn)", "pKi", 8.28),
    ("CCC1(CCCCN2CCc3sccc3C2)C(=O)Nc2ccccc21 (stereo not drawn)", "pKi", 8.37),
    ("CCC1(CCCCN2CCN(c3ccccc3Cl)CC2)C(=O)Nc2ccccc21 (stereo not drawn)", "pKi", 8.29),
    ("O=C1Nc2ccccc2C1CCCCN1CCN(c2ccc(Cl)cc2)CC1 (stereo not drawn)", "pKi", 8.15),
    ("CCC1(CCCCN2CC=C(c3ccc(Cl)cc3)CC2)C(=O)Nc2ccccc21 (stereo not drawn)", "pKi", 8.99),
    ("CCC1(CCCCN2CCc3ccccc3C2)C(=O)Nc2ccccc21 (stereo not drawn)", "pKi", 8.12),
    ("CCC1(CCCCN2CCN(c3ccc(C)c(Cl)c3)CC2)C(=O)Nc2ccccc21 (stereo not drawn)", "pKi", 9.18),
    ("CCC1(CCCCN2CCN(c3ccc(Cl)cc3)CC2)C(=O)Nc2c(Cl)cc(Cl)cc21 (stereo not drawn)", "pKi", 7.99),
    ("CCC1(CCCCN2CCN(c3ccc(Cl)c(Cl)c3)CC2)C(=O)Nc2ccccc21 (stereo not drawn)", "pKi", 9.20),
    ("CCC1(CCCCN2CC=C(c3ccc(F)cc3)CC2)C(=O)Nc2ccccc21 (stereo not drawn)", "pKi", 8.92),
]
